test method notes: RPL19A-GFP modulators, yeast TOR pathway, confirmation, cell-based, S. cerevisiae, flow cytometry, cherry picks, mother/daughter gates (AID 2270)
stated conditions: S. cerevisiae RPL19A-GFP strain, 3 h, at 10 µM, stronger effect = lower value, 100 = same GFP as DMSO wells
experimental endpoint: GFP response vs DMSO (%)
# value in %; strip the unit string

Look up GFP response vs DMSO of Cc1ccsc1/C=N/Nc1ncc(Cl)cc1Cl and report it.
97

Return reported GFP response vs DMSO. Input compound: COc1ccc(-c2cc(=O)n(-c3nc4ccccc4[nH]3)[nH]2)cc1
98.6

State, in one line, measured GFP response vs DMSO of Cc1[nH]n(-c2ccccc2)c(=O)c1C(c1ccccc1[N+](=O)[O-])C(C#N)C#N (stereo unspecified)
106

State, in one line, measured GFP response vs DMSO of COc1cccc(-c2nnc(NC(=O)c3ccc(S(=O)(=O)N4CC(C)OC(C)C4)cc3)o2)c1 (stereo unspecified)
103

Look up GFP response vs DMSO of O=C(CSc1ccc(-c2ccccn2)nn1)N1CCCCC1 and report it.
99.9

Please list GFP response vs DMSO recorded for the compound Cc1ccc(/C=C/C(=O)c2ccc([N+](=O)[O-])o2)cc1
101

* * *

test method notes: RPL19A-GFP modulators, yeast TOR pathway, confirmation, cell-based, S. cerevisiae, flow cytometry, cherry picks, mother/daughter gates (AID 2270)
stated conditions: S. cerevisiae RPL19A-GFP strain, 3 h, measured here: daughter cell gate, at 10 µM, stronger effect = lower value, 100 = same GFP as DMSO wells
experimental endpoint: GFP response vs DMSO (%)
Enter your answer as a number in %; do not include the unit.

Fill in reported GFP response vs DMSO for this entry: CC(=O)N(C1=C(Cl)C(=O)c2ccccc2C1=O)C1CCCCC1
92.8

Answer with the recorded GFP response vs DMSO for the compound listed here: CN1C(=O)/C(=N\OC(=O)c2cccc3ccccc23)c2ccccc21
99.8

Identify measured GFP response vs DMSO corresponding to CN(Cc1ccccc1)S(=O)(=O)c1ccc(C(=O)Nc2nnc(C3CC3)o2)cc1
102

Note GFP response vs DMSO for the compound shown: CCC(=O)N/C(N)=N/c1nc2ccccc2o1
85.1

Indicate the recorded GFP response vs DMSO value for this compound: COc1ccc(/C=N/Nc2nnc(C)n2N)cc1OC(C)=O
100

Return the recorded GFP response vs DMSO value; entry: CCOC(=O)c1ccc(N=Cc2nc(-c3ccccc3)oc2OC(C)=O)cc1
105

Check the records and state GFP response vs DMSO for N#C/C(=C\c1ccc(N2CCOCC2)o1)c1ccccc1
97.3

Answer with reported GFP response vs DMSO of CC(OC(=O)CSc1ccc([N+](=O)[O-])cc1)C(=O)NCc1ccccc1 (stereo unspecified)
101

Provide GFP response vs DMSO value for the following compound: COc1ccc(-c2ccc(S(=O)(=O)N3CCOCC3)cc2)cc1
93.9

Give the reported value of GFP response vs DMSO for this record: COc1ccc(N2C(=O)CC(Sc3nccc(C)n3)C2=O)cc1 (stereo unspecified)
98

Write down GFP response vs DMSO measured for item CCOc1ccc(N2C(=O)C(Cl)=C(Nc3ccccc3O)C2=O)cc1
98

* * *

test method notes: LAP4-GFP expression modulators in yeast, confirmation, cell-based, cherry picks, flow cytometry, mother/daughter gates (AID 2271);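 also: ratio of sample to DMSO plate mean so 100% equals DMSO level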
stated conditions: S. cerevisiae LAP4-GFP strain, 3 h, at 10 µM, stronger effect = higher value, 100 means same as DMSO control
Calls of active or inactive are those of the source.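 How the source made its calls: active means GFP response above 150% of the DMSO control; inconclusive means fewer than 70 events counted in any yeast strain; inactive means the rest.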
Kindly supply the reported GFP response relative to DMSO values for the records listed here.

Give the value of GFP response relative to DMSO reported for the following: CCS(=O)(=O)N1N=C(c2ccccc2)CC1c1ccc2nccnc2c1 (configuration not stated)
105% (inactive)

Answer with reported GFP response relative to DMSO of N#C/C(=C/c1ccc(N2CCOCC2)o1)c1ccc(Br)cc1
114% (inactive)

Specify measured GFP response relative to DMSO for O=C(COC(=O)c1n[nH]c2ccccc12)c1cc(F)ccc1F .
97.4% (inactive)

Please look at this molecule and report its GFP response relative to DMSO: CCc1ccc(CNC(=O)CCC(=O)N2Cc3cccc(OC)c3Oc3ncccc32)cc1
94.4% (inactive)

Supply reported GFP response relative to DMSO belonging to this molecule: O=[N+]([O-])c1cc(Cl)ccc1Sc1ccccn1
98.2% (inactive)

Supply reported GFP response relative to DMSO belonging to this molecule: O=C(NCCO)c1c(O)c2cccc3c2n(c1=O)CC3
92.6% (inactive)

Look up GFP response relative to DMSO of O=C(CSc1cccc[n+]1[O-])c1cc2ccccc2o1 and report it.
138% (inactive)

Please look at this molecule and report its GFP response relative to DMSO: Cc1ccc(/C=C/C(=O)c2ccccc2)cc1
100% (inactive)

Tell us which GFP response relative to DMSO value is on record for CCc1cccc(C)c1NC(=O)CC1Oc2ccc(C)cc2NC1=O (configuration not stated)
90.6% (inactive)

State its GFP response relative to DMSO for this molecule: O=C1c2ccsc2SCCN1Cc1ccc(Cl)cc1
135% (inactive)

For the molecule CCC(C(=O)O)n1nc(-c2ccccc2)c2cc(Cl)ccc21 (configuration not stated) , give its measured GFP response relative to DMSO value.
98.9% (inactive)

Let me know recorded GFP response relative to DMSO for Cc1ccc(S(=O)(=O)N(Cc2ccccc2)Cc2ccco2)cc1 , thanks.
87.8% (inactive)

These measurements were taken from PubChem BioAssay.
